experiment: Cell toxicity; format: cell-based
observed_property: IC50

"C=C(C)[C@@H]1CC[C@]2(C(=O)O)CC[C@]3(C)[C@H](CC[C@@H]4[C@@]5(C)CC[C@H](OC(=O)CC(C)(C)C(=O)O)C(C)(C)[C@@H]5CC[C@]43C)[C@@H]12" has a reported IC50 of > 300 µM
